# Tested on: Plasmodium berghei
# methodNotes: Screen against P. berghei liver stage (PbLuc), transformed with Luciferase, at 10uM
# Format: functional, HepG2
# testContext: tested at 10 uM
Screen size: about 69,000 compounds; about 8,600 (12%) showed an effect of 50% or more. The list comes from a sample in which strong results are over-represented; it also holds close analogues and randomly drawn compounds.

>  <compound>
CC(C)C(C)(C#N)NC(=O)CN1CCC(c2ccnn2CCO)CC1 (centres undefined)

>  <tgt>
Plasmodium berghei

>  <INHIBITION (%)>
-1.14

$$$$
>  <compound>
Cc1ccc(OCCCNC(=O)NC(C)c2nncn2C)cc1 (centres undefined)

>  <tgt>
Plasmodium berghei

>  <INHIBITION (%)>
38.7

$$$$
>  <compound>
Cc1ccc(OCCNC(=O)C(C)n2cncn2)cc1 (centres undefined)

>  <tgt>
Plasmodium berghei

>  <INHIBITION (%)>
8.47

$$$$
>  <compound>
Cc1ccc(OCCCNC(=O)C(C)Sc2nncn2C)cc1 (centres undefined)

>  <tgt>
Plasmodium berghei

>  <INHIBITION (%)>
50.8

$$$$
>  <compound>
Cc1csc(NC(=O)CN2CCC(c3ccnn3CCO)CC2)n1

>  <tgt>
Plasmodium berghei

>  <INHIBITION (%)>
66

$$$$
>  <compound>
Cc1cc(C)cc(OCCNC(=O)C(C)Sc2nncn2C)c1 (centres undefined)

>  <tgt>
Plasmodium berghei

>  <INHIBITION (%)>
53.6

$$$$
>  <compound>
CCC1CN(CC(=O)NCc2ccco2)CCO1 (centres undefined)

>  <tgt>
Plasmodium berghei

>  <INHIBITION (%)>
36.6

$$$$
>  <compound>
CC(C(=O)NCCOc1ccc(F)cc1)n1cncn1 (centres undefined)

>  <tgt>
Plasmodium berghei

>  <INHIBITION (%)>
-44.3

$$$$
>  <compound>
Cc1cc(C)cc(OCCN(C)C(=O)NC(C)c2nncn2C)c1 (centres undefined)

>  <tgt>
Plasmodium berghei

>  <INHIBITION (%)>
21.5

$$$$
